system: 454973-116-R2-J3-PDC spheroids, viability, % test/control; experiment: Anticancer human tumor 454973-116-R2-J3-PDC patient-derived pancreatic carcinoma cell line growth inhibition [GQUAD]; conditions: curve of first compound; second compound 1 µM; spheroids with HUVEC and MSC;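 further: spheroids exposed to compounds for seven days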
pIC50: −log10 of the molar value.
ASSAY ENDPOINT: pIC50

The cases that follow already have their pIC50 on record.
1) Nc1ccn(C2OC(CO)C(O)C2(F)F)c(=O)n1 (stereo not given) + Cc1[nH]c2ccc(F)cc2c1-c1nc2c3cccnc3c3ncccc3c2[nH]1 : > 7.50
2) COc1ncnc(C2CC2)c1-c1ncc2cnn(Cc3ccc(-c4nc(C(F)(F)F)cn4C(C)C)cc3)c2n1 + Cc1[nH]c2ccc(F)cc2c1-c1nc2c3cccnc3c3ncccc3c2[nH]1 : < 5.00
3) C#Cc1c(F)ccc2cc(O)cc(-c3ncc4c(N5CC6CCC(C5)N6)nc(OCC56CCCN5CC(F)C6)nc4c3F)c12 (stereo not given) + CN(C)c1ccc(Nc2c3ccc(NC(=O)CCN4CCCC4)cc3nc3cc(NC(=O)CCN4CCCC4)ccc23)cc1 : > 7.50
4) C#Cc1c(F)ccc2cc(O)cc(-c3ncc4c(N5CC6CCC(C5)N6)nc(OCC56CCCN5CC(F)C6)nc4c3F)c12 (stereo not given) + Cc1cnc(CNC(=O)c2c(=O)c3ccc(N4CCCN(C)CC4)nc3n3c2sc2ccccc23)cn1 : > 7.50

Pending compound:
Recall and state the measured pIC50 for Nc1ccn(C2OC(CO)C(O)C2(F)F)c(=O)n1 (stereo not given) + Cc1cnc(CNC(=O)c2c(=O)c3ccc(N4CCCN(C)CC4)nc3n3c2sc2ccccc23)cn1 . > 7.50
